assay: log P determination by HPLC on reverse-phase column (EEC Directive 79/831 Annex V.A8); type: physicochemical
Tick Fulfilled if logP is 3 or greater. Tick Not fulfilled if logP is less than 3.

Use these answered entries as a reference point.
>  <molecule>
Cc1cc(C#N)cc(C(=O)NC(C)C)c1NC(=O)c1cc(Cn2cc(C(F)(F)C(F)(F)F)c(C(F)(F)C(F)(F)F)n2)nn1-c1ncccc1Cl [I-1-169]

>  <category>
Fulfilled

$$$$
>  <molecule>
CNC(=O)c1cc(I)cc(C)c1NC(=O)c1cc(Cn2nc(C(F)(F)F)cc2C(F)(F)F)nn1-c1ncccc1Cl [I-1-227]

>  <category>
Fulfilled

$$$$
>  <molecule>
Cc1cc(C#N)cc(C(=O)NCC#N)c1NC(=O)c1cc(Cn2cnc(C(F)(F)C(F)(F)F)n2)nn1-c1ncccc1Cl [I-1-351]

>  <category>
Not fulfilled

$$$$

Could you please find out whether Cc1cc(Cl)cc(C(=O)NC(C)C)c1NC(=O)c1cc(Cn2nc(C(F)F)c([N+](=O)[O-])c2C(F)F)nn1-c1ncccc1Cl [I-1-258] has logP that meets 3 or exceeds it?
Fulfilled

# bool: logP of Cc1cc(Cl)cc(C(N)=O)c1NC(=O)c1cc(Cn2cnc(C(F)(F)C(F)(F)F)n2)nn1-c1ncccc1Cl [I-1-343] >= 3
Not fulfilled

Check the entry Cc1cc(I)cc(C(=O)NC(C2CC2)C2CC2)c1NC(=O)c1cc(Cn2nc(C(F)(F)F)cc2C(F)(F)F)nn1-c1ncccc1Cl [I-1-236] : does logP equal or exceed 3?
Fulfilled

For this molecule, is measured logP 3 or higher? Cc1cc(F)cc(C(=O)NC(C)C)c1NC(=O)c1cc(Cn2cc(C(F)(F)C(F)(F)F)c(C(F)(F)C(F)(F)F)n2)nn1-c1ncccc1Cl [I-1-217]
Fulfilled

Reported logP at or above 3? CNC(=O)c1cc(I)cc(C)c1NC(=O)c1cc(Cn2nc(C(F)F)c([N+](=O)[O-])c2C(F)F)nn1-c1ncccc1Cl [I-1-278]
Fulfilled

Item Cc1cc(Cl)cc(C(=O)NC2C3CCCCC32)c1NC(=O)c1cc(Cn2cc(Cl)c(C(F)(F)C(F)(F)F)n2)nn1-c1ncccc1Cl (centres unmarked) [I-1-205] with logP of 3 or above?
Fulfilled

###

We begin with a simple list: items and their reported logP.
test: log P determination by HPLC on reverse-phase column (EEC Directive 79/831 Annex V.A8); format: physicochemical; conditions: HPLC on reverse-phase column

Consider the following illustrative entries.
>  <compound>
Cc1cc(Cl)cc(C(=O)NC(C)(C)CS(C)(=O)=O)c1NC(=O)c1cc(Cn2nc(C(F)(F)F)nc2C(F)(F)F)nn1-c1ncccc1Cl [I-1-139]

>  <logP>
3.50

$$$$
>  <compound>
Cc1cc(Cl)cc(C(=O)NC(C)C)c1NC(=O)c1cc(Cn2cccn2)nn1-c1ncccc1Cl [I-1-9]

>  <logP>
2.45

$$$$
>  <compound>
Cc1cc(Br)cc(C(=O)NCC#N)c1NC(=O)c1cc(Cn2nc(C(F)(F)F)nc2C(F)(F)F)nn1-c1ncccc1Cl [I-1-56]

>  <logP>
3.44

$$$$

Could you now consider this next compound?
Quick one: logP for Cc1cc(Br)cc(C(=O)NC(C)(C)C[S+](C)[O-])c1NC(=O)c1cc(Cn2nc(C(F)(F)F)nc2C(F)(F)F)nn1-c1ncccc1Cl (stereo not shown) [I-1-144] ?
3.38

Where these numbers come from: patent US8101550B2
